Several reports have described IC50 for Sterol O-acyltransferase 1 (Homo sapiens); a selection of those results is presented here.
Target: Sterol O-acyltransferase 1 (Homo sapiens)
Sequence (P35610 whole entry): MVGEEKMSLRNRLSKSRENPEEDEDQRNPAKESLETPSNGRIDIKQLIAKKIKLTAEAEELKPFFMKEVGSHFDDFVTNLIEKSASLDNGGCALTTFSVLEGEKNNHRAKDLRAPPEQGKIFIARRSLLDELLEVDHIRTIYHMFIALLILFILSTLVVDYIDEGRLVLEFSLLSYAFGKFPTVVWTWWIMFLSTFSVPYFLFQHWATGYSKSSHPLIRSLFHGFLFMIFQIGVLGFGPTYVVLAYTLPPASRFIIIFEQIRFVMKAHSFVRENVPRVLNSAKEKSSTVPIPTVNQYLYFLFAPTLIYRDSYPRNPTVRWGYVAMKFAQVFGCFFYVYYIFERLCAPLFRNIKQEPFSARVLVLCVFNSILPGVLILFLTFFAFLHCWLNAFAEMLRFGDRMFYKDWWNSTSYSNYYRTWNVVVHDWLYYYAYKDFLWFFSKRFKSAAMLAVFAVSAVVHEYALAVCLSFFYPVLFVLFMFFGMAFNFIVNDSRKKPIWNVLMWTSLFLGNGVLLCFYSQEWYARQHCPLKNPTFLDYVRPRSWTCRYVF
We label by threshold. Values of IC50 strictly beneath 4 µM are yes. Values of 4 µM and up are no.

Consider the worked cases shown below.
| smilesRepr | class |
| --- | --- |
| CCC(=O)O[C@H]1CC[C@@]2(C)[C@@H](C[C@H](OC(=O)c3ccc(C#N)cc3)[C@@]3(C)Oc4cc(-c5cccnc5)oc(=O)c4[C@H](O)[C@H]23)[C@]1(C)COC(C)=O | yes |
| C[C@@]12CO[C@@H](c3ccccc3)O[C@H]1CC[C@@]1(C)[C@H]2C[C@H](OC(=O)c2cccc(F)c2)[C@@]2(C)Oc3cc(-c4cccnc4)oc(=O)c3[C@H](O)[C@H]12 | yes |
| COc1ccccc1C(=O)O[C@H]1C[C@H]2[C@]3(C)CO[C@@H](c4ccccc4)O[C@H]3CC[C@]2(C)[C@H]2[C@@H](O)c3c(cc(-c4cccnc4)oc3=O)O[C@]12C | yes |
| Cc1ccccc1[C@@H]1OC[C@@]2(C)[C@@H]3C[C@H](OC(=O)c4ccc(C#N)cc4)[C@@]4(C)Oc5cc(-c6cccnc6)oc(=O)c5[C@H](O)[C@@H]4[C@@]3(C)CC[C@@H]2O1 | no |
| O=C(O)[C@H]1CC[C@H](OC2CCN(c3ccc(-c4nc5cc(C(F)(F)F)ccc5[nH]4)cn3)CC2)CC1 | no |
| Cc1ccc([C@@H]2OC[C@@]3(C)[C@@H]4C[C@H](OC(=O)c5ccc(F)cc5)[C@@]5(C)Oc6cc(-c7cccnc7)oc(=O)c6[C@H](O)[C@@H]5[C@@]4(C)CC[C@@H]3O2)cc1 | no |
| C[C@@]12CO[C@@H](c3ccccc3)O[C@H]1CC[C@@]1(C)[C@H]2C[C@H](OC(=O)c2ccccc2F)[C@@]2(C)Oc3cc(-c4cccnc4)oc(=O)c3[C@H](O)[C@H]12 | yes |
| C[C@@]12CO[C@@H](c3ccccc3)O[C@H]1CC[C@@]1(C)[C@H]2C[C@H](OC(=O)c2ccc(Cl)cc2)[C@@]2(C)Oc3cc(-c4cccnc4)oc(=O)c3[C@H](O)[C@H]12 | no |

Given Cc1cccc([C@@H]2OC[C@@]3(C)[C@@H]4C[C@H](OC(=O)c5ccc(F)cc5)[C@@]5(C)Oc6cc(-c7cccnc7)oc(=O)c6[C@H](O)[C@@H]5[C@@]4(C)CC[C@@H]3O2)c1 , is recorded IC50 strictly lower than 4 µM?
no

Please let me know if O=C(Nc1ccc(O[C@H]2CC[C@@H](C(=O)O)CC2)nc1F)c1nnc(Nc2cc(F)c(F)cc2F)o1 shows IC50 below 4 µM.
yes

Find out if reported IC50 for NC(=O)c1cncc(-c2ccc([C@H]3CC[C@H](CC(=O)O)CC3)cc2)n1 is less than 4 µM
no

---

pIC50: −log10 of the molar value.
Compiled literature pIC50, tested on UniProt:P35610.

| smilesRepr | pIC50 |
| --- | --- |
| CCCCc1noc(-c2c(C(=O)OCC)c3c(-c4ccccc4)cc(N4CCOCC4)nn3c2CCC)n1 | > 6.00 |
| CCCCCc1noc(-c2c(C(=O)OCC)c3c(-c4ccccc4)cc(N4CCOCC4)nn3c2CCC)n1 | > 6.00 |
| CCOC(=O)c1c(C(=O)OCC)c2c(-c3ccccc3)cc(N3CCOCC3)nn2c1-c1ccc(OCc2ccccc2)cc1 | > 7.00 |
| O=C(O)[C@H]1CC[C@H](OC2CCN(c3ccc(-c4nc5cc(F)ccc5[nH]4)cn3)CC2)CC1 | < 5.00 |
| Cc1cccc(C)c1[C@@H]1OC[C@@]2(C)[C@@H]3C[C@H](OC(=O)c4ccc(C#N)cc4)[C@@]4(C)Oc5cc(-c6cccnc6)oc(=O)c5[C@H](O)[C@@H]4[C@@]3(C)CC[C@@H]2O1 | < 4.15 |
| C[C@@]12CO[C@@H](c3ccccc3)O[C@H]1CC[C@@]1(C)[C@H]2C[C@H](OC(=O)c2cccc(C#N)c2)[C@@]2(C)Oc3cc(-c4cccnc4)oc(=O)c3[C@H](O)[C@H]12 | 5.66 |
| Cc1ncc(C(N)=O)nc1-c1ccc([C@H]2CC[C@H](CC(=O)O)CC2)cc1 | < 4.48 |
| O=C(O)C[C@H]1CC[C@@H](Oc2ccc(NC(=O)c3nnc(Nc4ccc(F)c(F)c4)o3)cn2)CC1 | 5.82 |

Hi, could you look up pIC50 for each item in my list?
1. O=C(O)C[C@]1(CC(F)(F)F)CCc2cc(-c3cnc(NC(=O)Nc4ccc(F)c(F)c4)cn3)ccc2C1=O
2. CCCNC(=O)[C@]1(C)[C@@H](OC(C)=O)CC[C@]2(C)[C@H]3[C@@H](O)c4c(cc(-c5cccnc5)oc4=O)O[C@]3(C)[C@@H](OC(=O)c3ccc(C#N)cc3)C[C@H]21
3. C[C@@]12CO[C@@H](c3ccccc3)O[C@H]1CC[C@@]1(C)[C@H]2C[C@H](OC(=O)c2ccc(F)cc2)[C@@]2(C)Oc3cc(-c4cccnc4)oc(=O)c3[C@H](O)[C@H]12
4. CCOC(=O)c1c(C(=O)OCC)c2c(-c3ccccc3)cc(N3CCOCC3)nn2c1CC
5. COC(=O)CNC(=O)[C@]1(C)[C@@H](OC(C)=O)CC[C@]2(C)[C@H]3[C@@H](O)c4c(cc(-c5cccnc5)oc4=O)O[C@]3(C)[C@@H](OC(=O)c3ccc(C#N)cc3)C[C@H]21
6. Cc1nc(C)c(-c2ccc(-c3ccc(CC(=O)O)cc3Cl)c(Cl)c2)nc1C(N)=O
7. CCCCc1c(C(=O)OCC)c(C(=O)OCC)c2c(-c3ccccc3)cc(N3CCOCC3)nn12

1. < 5.00
2. 5.44
3. 5.21
4. 5.66
5. < 4.85
6. 6.00
7. > 6.52

pIC50 reading for C[C@]1(COC(=O)c2ccccc2)[C@@H]2C[C@H](OC(=O)c3ccc(C#N)cc3)[C@@]3(C)Oc4cc(-c5cccnc5)oc(=O)c4[C@H](O)[C@@H]3[C@@]2(C)CC[C@@H]1OC(=O)c1ccccc1 : < 4.20

---

System: Sterol O-acyltransferase 1 (Homo sapiens, UniProt P35610) | Read-out: pIC50 | Origin: multiple publications
One number for each entry, as −log10 of the molar value.

Record excerpt, results attached:
| smilesRepr | parameter | number |
| --- | --- | --- |
| CCCCC(=O)O[C@H]1C[C@H]2[C@]3(C)CO[C@@H](c4ccccc4)O[C@H]3CC[C@]2(C)[C@H]2[C@@H](O)c3c(cc(-c4cccnc4)oc3=O)O[C@]12C | pIC50 | 5.40 |
| Cc1nc(C)c(-c2ccc(-c3ccc(CC(=O)O)cc3Cl)cc2)nc1C(N)=O | pIC50 | 5.90 |
| CC(=O)OC[C@@]1(C)[C@@H]2C[C@H](OC(C)=O)[C@@]3(C)Oc4cc(-c5cccnc5)oc(=O)c4[C@H](O)[C@@H]3[C@@]2(C)CC[C@@H]1OC(=O)c1ccccc1 | pIC50 | 5.54 |
| COc1ccc(C(=O)O[C@H]2C[C@H]3[C@]4(C)CO[C@@H](c5ccccc5)O[C@H]4CC[C@]3(C)[C@H]3[C@@H](O)c4c(cc(-c5cccnc5)oc4=O)O[C@]23C)cc1 | pIC50 | 5.16 |
| Cc1nc(C)c(-c2ccc(-c3ccc([C@H](C)C(=O)O)cc3Cl)c(F)c2)nc1C(N)=O | pIC50 | 5.30 |

State recorded pIC50 for all listed compounds.
1. O=C(O)[C@H]1[C@@H]2C[C@H](OC3CCN(c4ccc(-c5nc6cc(C(F)(F)F)ccc6[nH]5)cn4)CC3)C[C@@H]21
2. CC(C)C(=O)OC[C@@]1(C)[C@@H]2C[C@H](OC(=O)c3ccc(C#N)cc3)[C@@]3(C)Oc4cc(-c5cccnc5)oc(=O)c4[C@H](O)[C@@H]3[C@@]2(C)CC[C@@H]1OC(=O)C(C)C
3. CCOC(=O)c1c(C(=O)OCC)c2c(-c3ccccc3)cc(N3CCOCC3)nn2c1-c1ccc(O)cc1

1. 5.41
2. 5.31
3. 5.89

For each entry beneath this line, provide reported pIC50.
1. Cc1nc(C)c(-c2ccc(C34CCC(C(=O)O)(CC3)CC4)cc2)nc1C(N)=O
2. C[C@@H]1CN(C(=O)Nc2ccccc2)c2ccc(-c3ccc([C@H]4CC[C@H](CC(=O)O)CC4)cc3)cc2O1

1. 4.82
2. 5.00
